Attribute: tissue uptake at 1 h
assay: in vivo; parameters: species or system mice; details: male, NOD.Cg-Rag1tm1Mom Il2rgtm1Wjl/SzJ (NRG), mouse, iv, total radioactivity, Biodistribution: Muscle
Where a SMILES comes first, the peptide text is derived from it. Bridges are numbered along the chain shown (N, C = ends). Side-chain parts run from the residue outwards. [ ]: non-standard residue; d: D form. The star is where a group is joined. X4 = O=C(O)CN1CCN(CC(=O)O)CCN(CC(=O)N[C@@H](CS(=O)(=O)O)C(=O)NCCCC[C@H](NC(=O)CNC(=O)CCCc2ccc(Cl)cc2)C(=O)*)CCN(CC(=O)O)CC1; X3 = O=C(O)CN1CCN(CC(=O)O)CCN(CC(=O)N[C@@H](CS(=O)(=O)O)C(=O)N[C@@H](CCCCNC(=O)CCCc2ccc(Br)cc2)C(=O)*)CCN(CC(=O)O)CC1; X5 = O=C(O)CN1CCN(CC(=O)O)CCN(CC(=O)N[C@@H](CS(=O)(=O)O)C(=O)N[C@@H](CCCCNC(=O)CCCc2ccc(Cl)cc2)C(=O)*)CCN(CC(=O)O)CC1; X1 = O=C(O)CN1CCN(CC(=O)O)CCN(CC(=O)N[C@@H](CS(=O)(=O)O)C(=O)N[C@@H](CCCCNC(=O)CCCc2ccc(I)cc2)C(=O)*)CCN(CC(=O)O)CC1; X6 = COc1ccc(CCCC(=O)NCCCC[C@H](NC(=O)[C@H](CS(=O)(=O)O)NC(=O)CN2CCN(CC(=O)O)CCN(CC(=O)O)CCN(CC(=O)O)CC2)C(=O)*)cc1; X7 = COc1ccc(CCCC(=O)NCCCC[C@H](NC(=O)CN2CCN(CC(=O)O)CCN(CC(=O)O)CCN(CC(=O)O)CC2)C(=O)*)cc1; DOTA = O=C(O)CN1CCN(CC(=O)O)CCN(CC(=O)*)CCN(CC(=O)O)CC1; NMeLys(iPr) = CN[C@@H](CCCCNC(C)C)C(=O)O; 2Nal = N[C@@H](Cc1ccc2ccccc2c1)C(=O)O; Lys(iPr) = CC(C)NCCCC[C@H](N)C(=O)O; Cya = N[C@@H](CS(=O)(=O)O)C(=O)O
TEST_READOUT: tissue uptake at 1 h (%ID/g)

{"columns": ["MOLECULE", "TEST_READOUT", "RECORDED_NUMBER"],
 "data": [
  ["COc1ccc(CCCC(=O)NCCCC[C@H](NC(=O)CN2CCN(CC(=O)O)CCN(CC(=O)O)CCN(CC(=O)O)CC2)C(=O)N[C@@H](CS(=O)(=O)O)C(=O)NCCCC[C@@H]2NC(=O)CC[C@H](C(=O)N[C@@H](CCCCNC(C)C)C(N)=O)NC(=O)[C@@H](C)NC(=O)[C@H](Cc3ccc4ccccc4c3)NC(=O)[C@@H](CCCNC(=N)N)NC(=O)[C@H](CCCCNC(C)C)NC(=O)[C@H](Cc3ccc(O)cc3)NC2=O)cc1 [[68Ga]Ga-BL34L6, metal not drawn] (K([Cya-X7])Y[Lys(iPr)][dR][2Nal][dA][dE][Lys(iPr)]-NH2; lactam N-7)", "tissue uptake at 1 h", 0.12],
  ["CC(C)NCCCC[C@H](NC(=O)[C@H]1CCC(=O)N[C@@H](CCCCNC(=O)[C@H](CCCCNC(=O)[C@H](CS(=O)(=O)O)NC(=O)CN2CCN(CC(=O)O)CCN(CC(=O)O)CCN(CC(=O)O)CC2)NC(=O)CNC(=O)CCCc2ccc(Cl)cc2)C(=O)N[C@@H](Cc2ccc(O)cc2)C(=O)N[C@@H](CCCCNC(C)C)C(=O)N[C@H](CCCNC(=N)N)C(=O)N[C@@H](Cc2ccc3ccccc3c2)C(=O)N[C@H](C)C(=O)N1)C(N)=O [[68Ga]Ga-BL34T1, metal not drawn] (K(X4)Y[Lys(iPr)][dR][2Nal][dA][dE][Lys(iPr)]-NH2; lactam N-7)", "tissue uptake at 1 h", 0.99],
  ["CC(C)NCCCC[C@H](NC(=O)[C@H]1CCC(=O)N[C@@H](CCCCNC(=O)[C@H](CCCCNC(=O)CCCc2ccc(Br)cc2)NC(=O)[C@H](CS(=O)(=O)O)NC(=O)CN2CCN(CC(=O)O)CCN(CC(=O)O)CCN(CC(=O)O)CC2)C(=O)N[C@@H](Cc2ccc(O)cc2)C(=O)N[C@@H](CCCCNC(C)C)C(=O)N[C@H](CCCNC(=N)N)C(=O)N[C@@H](Cc2ccc3ccccc3c2)C(=O)N[C@H](C)C(=O)N1)C(N)=O [[^177Lu]Lu-BL34L20, metal not drawn] (K(X3)Y[Lys(iPr)][dR][2Nal][dA][dE][Lys(iPr)]-NH2; lactam N-7)", "tissue uptake at 1 h", 1.13],
  ["CC(C)NCCCC[C@H](NC(=O)[C@H]1CCC(=O)N[C@@H](CCCCNC(=O)[C@H](CS(=O)(=O)O)NC(=O)CN2CCN(CC(=O)O)CCN(CC(=O)O)CCN(CC(=O)O)CC2)C(=O)N[C@@H](Cc2ccc(O)cc2)C(=O)N(C)[C@@H](CCCCNC(C)C)C(=O)N[C@H](CCCNC(=N)N)C(=O)N[C@@H](Cc2ccc3ccccc3c2)C(=O)N[C@H](C)C(=O)N1)C(N)=O [[^68Ga]Ga-BL34N1, metal not drawn] (K([Cya-DOTA])Y[NMeLys(iPr)][dR][2Nal][dA][dE][Lys(iPr)]-NH2; lactam N-7)", "tissue uptake at 1 h", 0.09],
  ["CC(C)NCCCC[C@H](NC(=O)[C@H]1CCC(=O)N[C@@H](CCCCNC(=O)[C@H](CCCCNC(=O)CCCc2ccc(I)cc2)NC(=O)[C@H](CS(=O)(=O)O)NC(=O)CN2CCN(CC(=O)O)CCN(CC(=O)O)CCN(CC(=O)O)CC2)C(=O)N[C@@H](Cc2ccc(O)cc2)C(=O)N[C@@H](CCCCNC(C)C)C(=O)N[C@H](CCCNC(=N)N)C(=O)N[C@@H](Cc2ccc3ccccc3c2)C(=O)N[C@H](C)C(=O)N1)C(N)=O [[^68Ga]Ga-BL34L11, metal not drawn] (K(X1)Y[Lys(iPr)][dR][2Nal][dA][dE][Lys(iPr)]-NH2; lactam N-7)", "tissue uptake at 1 h", 1.39],
  ["CC(C)NCCCC[C@H](NC(=O)[C@H]1CCC(=O)N[C@@H](CCCCNC(=O)[C@H](CCCCNC(=O)CCCc2ccc(Cl)cc2)NC(=O)[C@H](CS(=O)(=O)O)NC(=O)CN2CCN(CC(=O)O)CCN(CC(=O)O)CCN(CC(=O)O)CC2)C(=O)N[C@@H](Cc2ccc(O)cc2)C(=O)N[C@@H](CCCCNC(C)C)C(=O)N[C@H](CCCNC(=N)N)C(=O)N[C@@H](Cc2ccc3ccccc3c2)C(=O)N[C@H](C)C(=O)N1)C(N)=O [[^68Ga]Ga-BL34L16, metal not drawn] (K(X5)Y[Lys(iPr)][dR][2Nal][dA][dE][Lys(iPr)]-NH2; lactam N-7)", "tissue uptake at 1 h", 0.61],
  ["COc1ccc(CCCC(=O)NCCCC[C@H](NC(=O)[C@H](CS(=O)(=O)O)NC(=O)CN2CCN(CC(=O)O)CCN(CC(=O)O)CCN(CC(=O)O)CC2)C(=O)NCCCC[C@@H]2NC(=O)CC[C@H](C(=O)N[C@@H](CCCCNC(C)C)C(N)=O)NC(=O)[C@@H](C)NC(=O)[C@H](Cc3ccc4ccccc4c3)NC(=O)[C@@H](CCCNC(=N)N)NC(=O)[C@H](CCCCNC(C)C)NC(=O)[C@H](Cc3ccc(O)cc3)NC2=O)cc1 [[^68Ga]Ga-BL34L7, metal not drawn] (K(X6)Y[Lys(iPr)][dR][2Nal][dA][dE][Lys(iPr)]-NH2; lactam N-7)", "tissue uptake at 1 h", 0.14],
  ["CC(C)NCCCC[C@H](NC(=O)[C@@H]1CCSc2c3cccc([N+](=O)[O-])c3cn2[C@@H](CCCCNC(=O)[C@H](CS(=O)(=O)O)NC(=O)CN2CCN(CC(=O)O)CCN(CC(=O)O)CCN(CC(=O)O)CC2)C(=O)CC(Cc2ccc(O)cc2)C(=O)N[C@@H](CCCCNC(C)C)C(=O)N[C@H](CCCNC(=N)N)C(=O)N[C@@H](Cc2ccc3ccccc3c2)C(=O)N[C@H](C)C(=O)N1)C(N)=O (some centres unmarked) [[^68Ga]Ga-3NOPA-BL34L2, metal not drawn]", "tissue uptake at 1 h", 0.19]
]}
